Sourced from PubChem BioAssay

- assay procedure: RAM signaling pathway blockade in yeast – S. cerevisiae, Pdr1DBD-CYC8 efflux-inhibited sensitized strain, primary screen (AID 1298);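 further: 0% = DMSO untreated cells without growth and 100% = 10 µM 1-NA-PP1 full growth; higher means more yeast growth rescued from 5-FOA killing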
- setup conditions: S. cerevisiae cbk1-as DSE1-URA3 strain, 5-FOA growth OD615, 2 d; at 50 µM; stronger effect = higher value
readout: RAM network inhibition (%)
Give just the numeric value; % need not be written.

// RAM network inhibition value for `COc1ccc(S(=O)(=O)NCc2cn3c(C)csc3n2)cc1F` : -0.48

Form field RAM network inhibition, entry `CCOC(=O)CSc1nc(C)cc(Oc2ccc(=O)n(C)n2)n1` : 0.42

RAM network inhibition in this record for `Cn1cnnc1SCc1ccc(C#N)cc1Cl` : 4.52

For reference, reported RAM network inhibition for `O=C(c1ccc(CS(=O)(=O)c2ccccc2)o1)N1CCN(c2ncccn2)CC1` stands at 2.87

Given item `CCC(CC)C(=O)NCCc1cc2ccc(C)c(C)c2[nH]c1=O` , the value recorded as its RAM network inhibition is 2.56

RAM network inhibition reported for this molecule COc1ccc(C2CC(=O)N3CN(c4ccccc4F)CSC3=C2C#N)cc1OC (stereo not drawn) : 1.24

The recorded RAM network inhibition for entry `Cc1ccc(S(=O)(=O)N2C(=S)SCC2(C)C)cc1` equals 0.51

Reported RAM network inhibition for `COc1ccc(OCCSc2nnc(-c3ccccc3)n2N)cc1` was 5.07

molecule `CSc1ccccc1NC(=O)c1cnc2scc(C)n2c1=O` , RAM network inhibition observed: 3.71

# molecule `O=C(Nc1cccc(C(F)(F)F)c1)c1cnc2n(c1=O)CCS2` ; its RAM network inhibition = 5.71

Measured RAM network inhibition, `Cc1ccc(-n2ncc3c(N4CCC5(CC4)OCCO5)ncnc32)c(C)c1` : -1.04

The reported value for Cc1onc(-c2ccccc2Cl)c1C(=O)NC1CCS(=O)(=O)C1 (stereo not drawn) in terms of RAM network inhibition is 3.02

So, `Cc1ccc(C(=O)NCCn2cc(SCC(=O)Nc3cc(C)on3)c3ccccc32)cc1` ? Its RAM network inhibition was 0.42

Memo: `Cc1c(C(=O)Nc2ccncc2)sc2nc(-c3ccccc3)cn12` , reported RAM network inhibition: -1.99

What the record says about `O=C(C1CCN(S(=O)(=O)c2cccc3cccnc23)CC1)N1CCN(Cc2ccccc2)CC1` : RAM network inhibition is 1.71

So, CSCCC(/C(O)=C(\C#N)c1nc2ccccc2[nH]1)N1C(=O)c2ccccc2C1=O (stereo not drawn) ? Its RAM network inhibition was 7.67

Documented RAM network inhibition of Cc1ccc(O)c(C2=NOC(O)(C(F)(F)C(F)F)C2)c1 (stereo not drawn) : 5.23

Recorded RAM network inhibition (molecule `CCCCN(CC)CCNc1c(NC2CCN(C(=O)OCC)CC2)c(=O)c1=O` ): 3.37

Quick note, RAM network inhibition for Cc1cc(NC(=O)c2cc3n(n2)C(C(F)(F)F)CC(c2ccco2)N3)no1 (stereo not drawn) landed at 1.13

Lab note: Cc1ccc(C2CC(c3ccccc3Cl)n3nc(N)nc3N2)cc1 (stereo not drawn) gave RAM network inhibition of 1.81

Please fill in: RAM network inhibition reported for `Cc1cc(C)nc(-n2nc(C)cc2NC(=O)CN2CCC(C)CC2)n1` = 2.91

Please fill in: RAM network inhibition reported for `Cc1cccc(NC(=O)CCNS(=O)(=O)c2cccc3nsnc23)c1` = 1.66

Per the records, this molecule ( `COc1ccc(C(=O)Nc2ccc3oc(-c4cccc(F)c4)nc3c2)cc1OC` ) has RAM network inhibition equal to 3.33
